Would you kindly list pIC50 for each of these compounds?
# system tested: PD-1/PD-L1 (Homo sapiens, UniProt Q9NZQ7)
# Construct: TVMV protease site linker (C)
# Sequence (Q9NZQ7 18-239): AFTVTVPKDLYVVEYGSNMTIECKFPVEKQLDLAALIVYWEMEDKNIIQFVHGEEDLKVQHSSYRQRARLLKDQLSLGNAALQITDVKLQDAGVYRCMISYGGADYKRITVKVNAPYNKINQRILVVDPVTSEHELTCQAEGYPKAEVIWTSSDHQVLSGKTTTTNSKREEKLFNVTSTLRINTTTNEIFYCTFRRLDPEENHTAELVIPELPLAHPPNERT
# procedure summary: PD-1/PD-L1 Homogenous Time-Resolved Fluorescence (HTRF) binding assay
# experimental conditions: PD-L1-His 10 nM, PD-1-Ig 20 nM
Numbers only, as −log10 of the molar value.

compound | pIC50
Cc1c(COc2cc(OCc3cncc(C#N)c3)c(CN(C)Cc3ccn(C)n3)cc2Cl)cccc1-c1cccc(OCCCN2CC[C@@H](O)C2)c1C [Example 2026] | 8.72
Cc1c(COc2cc(OCc3cncc(C#N)c3)c(CNCc3ncn[nH]3)cc2Cl)cccc1-c1cccc(OCCCN2CCC(O)(CO)CC2)c1Cl [Example 2009] | 8.68
CC(=O)NC1CCN(CCCOc2cccc(-c3cccc(COc4cc(OCc5cncc(C#N)c5)c(CN(C)C(C)c5nnn[nH]5)cc4Cl)c3C)c2C)CC1 (centres unmarked) [Example 1040] | 8.64
Cc1c(COc2cc(OCc3cncc(C#N)c3)c(CNCc3cc4ccccn4n3)cc2Cl)cccc1-c1cccc(OCCCN2CC[C@@H](O)C2)c1C [Example 2537] | 8.19
Cc1c(COc2cc(OCc3cncc(C#N)c3)c(CNCc3cccnc3)cc2Cl)cccc1-c1cccc(OCCCN2CC[C@@H](O)C2)c1C [Example 2018] | 9.10
Cc1c(COc2cc(OCc3cncc(C#N)c3)c(CN(C)Cc3ccccn3)cc2Cl)cccc1-c1cccc(OCCCN2CC[C@@H](O)C2)c1C [Example 2028] | 9.70
Cc1c(COc2cc(OCc3cncc(C#N)c3)c(CNCCc3ncn[nH]3)cc2Cl)cccc1-c1cccc(OCC2CCCN(C)C2)c1Cl (centres unmarked) [Example 2579] | 9.30
Cc1c(COc2cc(OCc3cncc(C#N)c3)c(CN(C)Cc3cnco3)cc2Cl)cccc1-c1cccc(OCCCN2CC[C@@H](O)C2)c1C [Example 2551] | 8.57

Batch of 6 compounds: report pIC50 for each.
1. Cc1c(COc2cc(OCc3cncc(C#N)c3)c(CN3CCCC(c4ccn[nH]4)C3)cc2Cl)cccc1-c1cccc(OCC2CCCN(C)C2)c1Cl (centres unmarked) [Example 1024]
2. Cc1c(COc2cc(OCc3cncc(C#N)c3)c(CNCc3cccnn3)cc2Cl)cccc1-c1cccc(OCc2cncnc2)c1Cl [Example 2061]
3. Cc1c(COc2cc(OCc3cncc(C#N)c3)c(CN3CCCC(c4nnc[nH]4)C3)cc2Cl)cccc1-c1cccc(OCCCN2CC[C@@H](O)C2)c1C (some centres unmarked) [Example 1008]
4. Cc1c(COc2cc(OCc3cncc(C#N)c3)c(CN(C)CCc3c[nH]cn3)cc2Cl)cccc1-c1cccc(OCCCN2CC[C@@H](O)C2)c1C [Example 2535]
5. Cc1c(COc2cc(OCc3cncc(C#N)c3)c(CNCc3cc(C4CC4)on3)cc2Cl)cccc1-c1cccc(OCC2CCCN(C)C2)c1Cl (centres unmarked) [Example 2607]
6. Cc1c(COc2cc(OCc3cncc(C#N)c3)c(CN(C)CCc3cscn3)cc2Cl)cccc1-c1cccc(OCCCN2CC[C@@H](O)C2)c1C [Example 2507]

[9.15, 7.77, 8.38, 8.41, 8.38, 8.77]

* * *

# system tested: PD-1/PD-L1 (Homo sapiens, UniProt Q9NZQ7)
# Construct: TVMV protease site linker (C)
# procedure summary: PD-1/PD-L1 Homogenous Time-Resolved Fluorescence (HTRF) binding assay
# experimental conditions: PD-L1-His 10 nM, PD-1-Ig 20 nM
# Source text: The ability of the compounds of the invention to bind to PD-L1 was investigated using a PD-1/PD-L1 Homogenous Time-Resolved Fluorescence (HTRF) binding assay. Homogenous Time-Resolved Fluorescence (HTRF) binding assay. The interaction of PD-1 and PD-L1 can be assessed using soluble, purified preparations of the extracellular domains of the two proteins. […]
Param label: returns yes when IC50 < 3 nM, returns no otherwise, including exact equality.

These solved cases illustrate the format of a correct answer.
compound | system tested | assigned class
Cc1ncsc1CCN(C)Cc1cc(Cl)c(OCc2cccc(-c3cccc(OCCCN4CC[C@@H](O)C4)c3C)c2C)cc1OCc1cncc(C#N)c1 [Example 2511] | PD-1/PD-L1 (Homo sapiens, UniProt Q9NZQ7) | no
COCc1noc(CN(C)Cc2cc(Cl)c(OCc3cccc(-c4cccc(OCCCN5CC[C@@H](O)C5)c4C)c3C)cc2OCc2cncc(C#N)c2)n1 [Example 2560] | PD-1/PD-L1 (Homo sapiens, UniProt Q9NZQ7) | no
Cc1c(COc2cc(OCc3cncc(C#N)c3)c(CNCc3ccnn3C)cc2Cl)cccc1-c1cccc(OCC2CCCN(C)C2)c1Cl (stereo not shown) [Example 2614] | PD-1/PD-L1 (Homo sapiens, UniProt Q9NZQ7) | yes
Cc1c(COc2cc(OCc3cncc(C#N)c3)c(CNCc3c[nH]cn3)cc2Cl)cccc1-c1cccc(OCCCN2CC[C@@H](O)C2)c1C [Example 2003] | PD-1/PD-L1 (Homo sapiens, UniProt Q9NZQ7) | no
Cc1c(COc2cc(OCc3cncc(C#N)c3)c(CN(C)Cc3ncn[nH]3)cc2Cl)cccc1-c1cccc(OCCCN2CCC(O)(CO)CC2)c1Cl [Example 2013] | PD-1/PD-L1 (Homo sapiens, UniProt Q9NZQ7) | yes
Cc1c(COc2cc(OCc3cncc(C#N)c3)c(CN(C)CCc3ncn[nH]3)cc2Cl)cccc1-c1cccc(OCCCN2CC[C@@H](O)C2)c1C [Example 2509] | PD-1/PD-L1 (Homo sapiens, UniProt Q9NZQ7) | yes

# strict comparison: is reported IC50 < 3 nM? input = Cc1c(COc2cc(OCc3cncc(C#N)c3)c(CNCc3ccnn3C)cc2Cl)cccc1-c1cccc(OCCCN2CC[C@@H](O)C2)c1C [Example 2556] yes

Hello, I'm reviewing records and need to know if IC50 of Cc1c(COc2cc(OCc3cccnn3)c(CNCc3ncc[nH]3)cc2Cl)cccc1-c1cccc(OCC2CCCN(C)C2)c1Cl (stereo not shown) [Example 2055] is below 3 nM. Could you check? no

Is the reported IC50 for Cc1c(COc2cc(OCc3cnccn3)c(CNCc3ncccn3)cc2Cl)cccc1-c1cccc(OCC2CCCN(C)C2)c1Cl (stereo not shown) [Example 2059] strictly below 3 nM? no
